// reported kon per item
Target: T1, human SIRPα v3-Fc (SIRPα3 extracellular domain fused to human IGHG1_Fc) (human, UniProt P78324 31-373; P0DOX5 223-449 = IgG part)
T1 construct: as m38; also called V3 (e.g. SIRPα3)
Test: BLI Octet, antigen-Fc on biosensor;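 also: antigen captured on the biosensor tip and then immersed in solutions of the test antibodies, which act as the analyte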
Measurement Kind: kon (M⁻¹ s⁻¹)

Binder	Measurement Kind	Unit Info	Numeric Readout
SIRPAB-13 (antibody, human IgG1, kappa, V domains shown) VH: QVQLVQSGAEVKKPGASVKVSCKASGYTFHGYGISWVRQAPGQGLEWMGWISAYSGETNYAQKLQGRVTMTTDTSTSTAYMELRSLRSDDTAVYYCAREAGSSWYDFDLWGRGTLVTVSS VL: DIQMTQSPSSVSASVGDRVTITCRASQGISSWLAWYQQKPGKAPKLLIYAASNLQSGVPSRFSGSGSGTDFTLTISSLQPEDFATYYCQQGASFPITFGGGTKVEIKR	kon	M⁻¹ s⁻¹	1.17e+06
SIRPAB-10 (antibody, human IgG1, kappa, V domains shown) VH: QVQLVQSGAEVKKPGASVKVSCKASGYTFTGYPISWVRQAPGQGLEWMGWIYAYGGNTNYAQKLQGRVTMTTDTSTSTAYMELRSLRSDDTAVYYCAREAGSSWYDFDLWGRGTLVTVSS VL: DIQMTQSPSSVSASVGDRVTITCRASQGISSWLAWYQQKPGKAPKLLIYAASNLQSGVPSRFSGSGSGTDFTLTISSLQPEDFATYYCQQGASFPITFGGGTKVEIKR	kon	M⁻¹ s⁻¹	1.24e+06
